Target: T1, VEZF1 (Homo sapiens, UniProt Q14119)
T1 sequence: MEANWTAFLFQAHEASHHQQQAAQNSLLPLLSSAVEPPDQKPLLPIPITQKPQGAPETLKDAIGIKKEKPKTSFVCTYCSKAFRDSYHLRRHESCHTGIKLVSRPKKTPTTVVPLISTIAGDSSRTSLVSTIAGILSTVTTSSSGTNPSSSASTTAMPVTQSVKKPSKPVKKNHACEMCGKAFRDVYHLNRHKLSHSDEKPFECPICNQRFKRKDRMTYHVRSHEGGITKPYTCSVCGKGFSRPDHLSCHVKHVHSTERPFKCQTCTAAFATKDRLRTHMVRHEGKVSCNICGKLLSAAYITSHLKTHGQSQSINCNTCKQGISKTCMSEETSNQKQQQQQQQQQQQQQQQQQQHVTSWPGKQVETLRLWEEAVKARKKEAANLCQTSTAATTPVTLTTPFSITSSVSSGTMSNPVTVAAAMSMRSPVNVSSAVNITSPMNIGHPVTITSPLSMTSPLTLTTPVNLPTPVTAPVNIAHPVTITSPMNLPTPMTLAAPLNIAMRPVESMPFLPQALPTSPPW
Assay: pulldown; 150 mM NaCl, 50 mM Tris pH 8.0, 0.25% NP-40, 1 mM DTT; 4 C, 2 h; 100 ug nuclear extract
Settings: protein: extract; label: 5' biotin (strand 1)

binder: CGCG bait (dsDNA) DNA 1: GCCGCCGCCCTTCTCGCGAGACTGCCGGGCC DNA 2: GGCCCGGCAGTCTCGCGAGAAGGGCGGCGGC
bound sign: =
apparent K (half saturation) / nM: 333
//
binder: SP/KLF negative control bait (dsDNA) DNA 1: GAGAGAAAATAAAACTGGCT DNA 2: AGCCAGTTTTATTTTCTCTC
bound sign: >
apparent K (half saturation) / nM: 1180
//
binder: BEND3 bait (dsDNA) DNA 1: GCCGCCGCCCTCCCACGCGCTGCCGGGCC DNA 2: GGCCCGGCAGCGCGTGGGAGGGCGGCGGC
bound sign: =
apparent K (half saturation) / nM: 110
//
binder: SP/KLF bait (dsDNA) DNA 1: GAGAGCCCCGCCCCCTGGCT DNA 2: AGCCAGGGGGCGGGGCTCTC
bound sign: =
apparent K (half saturation) / nM: 90.4
